Reference source for all entries: paper PMC10786891

# assay_system: T1, EsCas13d, nuclease-dead (Eubacterium siraeum, UniProt B0MS50, R295A;H300A;R849A;H854A)
# T1 sequence: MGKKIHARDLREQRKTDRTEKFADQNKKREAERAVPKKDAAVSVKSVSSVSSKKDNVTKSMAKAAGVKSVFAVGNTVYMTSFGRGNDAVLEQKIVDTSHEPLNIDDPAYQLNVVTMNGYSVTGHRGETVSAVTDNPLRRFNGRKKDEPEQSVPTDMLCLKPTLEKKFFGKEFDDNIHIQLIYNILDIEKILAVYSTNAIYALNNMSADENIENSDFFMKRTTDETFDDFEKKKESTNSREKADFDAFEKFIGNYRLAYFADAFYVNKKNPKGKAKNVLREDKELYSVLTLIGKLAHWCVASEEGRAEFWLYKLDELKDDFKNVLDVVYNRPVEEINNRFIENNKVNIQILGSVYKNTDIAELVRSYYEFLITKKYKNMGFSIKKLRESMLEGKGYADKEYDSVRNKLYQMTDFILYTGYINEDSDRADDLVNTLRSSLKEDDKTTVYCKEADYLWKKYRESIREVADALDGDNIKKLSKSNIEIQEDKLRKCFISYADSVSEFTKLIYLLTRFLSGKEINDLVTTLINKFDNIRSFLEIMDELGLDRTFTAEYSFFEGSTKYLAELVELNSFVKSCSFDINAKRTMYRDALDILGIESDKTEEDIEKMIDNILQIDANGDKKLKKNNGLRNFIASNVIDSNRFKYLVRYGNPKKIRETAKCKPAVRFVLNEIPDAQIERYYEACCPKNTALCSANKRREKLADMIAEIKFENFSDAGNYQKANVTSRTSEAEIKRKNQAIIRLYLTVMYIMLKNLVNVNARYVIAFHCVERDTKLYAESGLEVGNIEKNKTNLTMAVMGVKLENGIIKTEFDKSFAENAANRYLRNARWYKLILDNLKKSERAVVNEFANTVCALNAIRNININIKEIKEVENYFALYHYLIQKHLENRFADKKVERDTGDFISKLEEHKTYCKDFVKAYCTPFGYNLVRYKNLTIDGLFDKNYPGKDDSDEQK
# test_method_notes: crRNA (strand 1, pre-loaded); Mg2+; 40 mM Tris-HCl pH 7.5, 150 mM NaCl, 6 mM MgCl2, 1 mM DTT, 0.1% Tween-20, 0.2 mg/ml BSA; 25 C; 10 min per concentration, then washed
# cond: tags: His6-TwinStrep-SUMO cleaved; N-terminal SNAP kept (SNAP-Surface 488); label: 3' end held by stalled T7 RNA polymerase
Measured Kd of individual entries
Number in µM, nothing else.

Answered examples (3):
# binder, readout_units, Kd
data = [
    ("target 2 MT 5'PFS AGC 3'PFS CAC (mixed) RNA 1: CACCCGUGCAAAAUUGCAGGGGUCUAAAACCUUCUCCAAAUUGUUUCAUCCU RNA 2: GGGAAUGGAUCCACAUCUACGAAUUCAGCAGGAUGAAACAAUUUGGAGAAGCACAGAUCGGAAGAGCACACGU", "µM", 0.0114),
    ("target 2 MT 5'PFS UAG 3'PFS CUC (mixed) RNA 1: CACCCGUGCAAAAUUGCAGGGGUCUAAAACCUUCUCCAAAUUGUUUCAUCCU RNA 2: GGGAAUGGAUCCACAUCUACGAAUUCUAGAGGAUGAAACAAUUUGGAGAAGCUCAGAUCGGAAGAGCACACGU", "µM", 0.0044),
    ("target 2 MT 5'PFS GUA 3'PFS UGC (mixed) RNA 1: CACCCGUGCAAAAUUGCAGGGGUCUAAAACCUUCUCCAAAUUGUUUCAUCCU RNA 2: GGGAAUGGAUCCACAUCUACGAAUUCGUAAGGAUGAAACAAUUUGGAGAAGUGCAGAUCGGAAGAGCACACGU", "µM", 0.0114),
]

Lab note: next binder to report on.
Challenge: What does the data say about its Kd? Entry: target 1 insG 3' of 14,insA 3' of 2 (mixed) RNA 1: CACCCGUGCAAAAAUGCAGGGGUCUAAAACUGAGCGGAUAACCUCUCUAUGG RNA 2: GGGAAUGGAUCCACAUCUACGAAUUCGUACCAUAGAGAGGGUUAUCCGCUCAACCGAGAUCGGAAGAGCACACGU
Response given: 0.0133
